Assign efficacy to each entry below.
System: Alternaria solani
Assay: Alternaria test (tomato) / protective
Type: in vivo
Details: 500 ppm active compound, protective spray, evaluated 7 days after inoculation
Numbers only, in %.

Go through the list and state efficacy for each entry.
1. CCC(C)n1nc(-c2ccc(Cl)s2)c(-c2ccncc2)c1Br (centres unmarked)
2. Fc1ccc(-c2nn(C3CCCC3)cc2-c2ccncc2)s1
3. CC(C)(C)Cn1cc(-c2ccncc2)c(-c2ccc(Br)s2)n1
4. CCC(C)n1cc(-c2ccnc(NC(=O)c3cccs3)c2)c(-c2ccc(Cl)s2)n1 (centres unmarked)
5. CCC(C)n1cc(-c2ccnc(NC3COC3)n2)c(-c2ccc(Cl)s2)n1 (centres unmarked)

Reply |
94
94
70
70
95
